test system: Hek293T; assay: Primary qHTS to identify gynecologic anti-cancer compounds using libraries of approved drugs and bioactive compounds (AID 1345084); details: Gynecologic cancer cell panel viability, ATPlite luminescence, 48 h, control line for the selectivity index; series mostly up to 57.5 µM; also: nearly all actives have a fitted effect of over 55% in size; also: potency is read from the fitted curve at half-maximal effect
Results filed as inconclusive are left out. Calls of active or inactive are those of the source. Calls follow the shape of the dose curve; as a rule, active = well fitted cell-killing curve with a large enough effect; inconclusive = small, poorly fitted or top-dose-only effect, or effect the other way; inactive = flat fitted curve, though single readings scatter.
REPORTED_PROPERTY: Potency

C[C@@H]1CCC2C(C)(C)[C@H](O)CC[C@]2(C)[C@@]12Cc1c(O)cc3c(c1O2)CN([C@@H](CCC(=O)O)C(=O)O)C3=O (some centres undefined) ... inactive
COC(=O)CCSCc1ccc(-c2onc(C)c2NC(=O)OC(C)c2ccccc2Cl)cc1 (centres undefined) ... inactive
CNS(=O)(=O)c1ccccc1Nc1nc(Nc2ccc(N3CCN(C)CC3)cc2OC)ncc1Cl ... 12.6 µM (active)
CC1=CC(=O)CC(C)(C)C1CCC(C)O[C@@H]1O[C@H](CO[C@@H]2OC[C@@H](O)[C@H](O)[C@H]2O)[C@@H](O)[C@H](O)[C@H]1O (some centres undefined) ... inactive
